Run description: Plasma concentration and brain content after a single oral dose by gavage
Type: in vivo, mouse
Stated conditions: female, mouse, brain; 200 mg/kg single oral dose by gavage, BALB/c mice, 0 hr; read-out: Brain content
Measurement name: concentration at 0 hr (ng/g)

COc1cccc(/C=N/N(C(=O)C(F)(F)F)c2ccc(C)cc2C)c1 ... 0

====

System: primary cortical neurons
Run description: Trophic factor withdrawal (TFW) assay
Assay type: cell-based, rat
Stated conditions: Rattus norvegicus, Primary cortical neuron; Trophic factor withdrawal assay; read-out: TFW EC50
Text: FIG. 1A illustrates the results of a trophic factor withdrawal assay. […] Primary cortical neurons can be prepared from 18-day-old embryos of Sprague-Dawley rats as described (Liu & Schubert, J. Neurochem., 1997, 69:2285-2293 and J. Neurochem., 1998, 71:2322-2329). […] Cell survival can be measured 1-2 days after compound administration. […]
Measurement name: EC50 (nM)

COc1cccc(/C=N/N(C(=O)C(F)(F)F)c2ccc(C)cc2C)c1 ... 50
